molecular target: cloned human μ opioid receptor (Homo sapiens, UniProt P35372)
Sequence (P35372 whole entry): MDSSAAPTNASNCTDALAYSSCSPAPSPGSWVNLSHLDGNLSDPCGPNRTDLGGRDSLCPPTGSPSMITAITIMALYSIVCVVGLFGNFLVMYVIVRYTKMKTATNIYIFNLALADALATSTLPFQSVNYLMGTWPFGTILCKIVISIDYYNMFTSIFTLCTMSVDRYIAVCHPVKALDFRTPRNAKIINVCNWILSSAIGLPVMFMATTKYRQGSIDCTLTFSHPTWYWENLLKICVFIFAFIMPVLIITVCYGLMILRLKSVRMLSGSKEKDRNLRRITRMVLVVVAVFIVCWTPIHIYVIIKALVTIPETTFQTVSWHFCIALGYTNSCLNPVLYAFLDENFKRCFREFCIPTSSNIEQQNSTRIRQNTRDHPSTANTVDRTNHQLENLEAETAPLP
metric name: pKi
Give bare numbers, as −log10 of the molar value.

Please provide the recorded pKi for C[C@H]1C2CCC[C@]1(c1cccc(O)c1)CCN2C[C@H](Cc1ccccc1)C(=O)NCC(=O)O , tested on cloned human μ opioid receptor (Homo sapiens, UniProt P35372).
8.82
